# details: in isopropanol, 288.15 K
metric: solubility (mole fraction)
Reply: number alone, nothing else.

Ask | State the recorded solubility (mole fraction) for this entry: NC(=O)c1ccc(N)cc1
Reply | 0.00354

###

# details: in n-butanol, 323.15 K
metric: solubility (mole fraction)

Ask | State the recorded solubility (mole fraction) for this entry: NC(=O)c1ccc(N)cc1
Reply | 0.00514

###

# details: in water, 293.15 K
metric: solubility (mole fraction)
Reply: number alone, nothing else.

Ask | State the recorded solubility (mole fraction) for this entry: NC(=O)c1ccc(N)cc1
Reply | 0.00118

###

# details: in acetone, 313.15 K
metric: solubility (mole fraction)

Ask | State the recorded solubility (mole fraction) for this entry: NC(=O)c1ccc(N)cc1
Reply | 0.0137
